Biological target: MNK2 (h) protein kinase (Homo sapiens (Human))
Sequence (Q9HBH9 whole entry): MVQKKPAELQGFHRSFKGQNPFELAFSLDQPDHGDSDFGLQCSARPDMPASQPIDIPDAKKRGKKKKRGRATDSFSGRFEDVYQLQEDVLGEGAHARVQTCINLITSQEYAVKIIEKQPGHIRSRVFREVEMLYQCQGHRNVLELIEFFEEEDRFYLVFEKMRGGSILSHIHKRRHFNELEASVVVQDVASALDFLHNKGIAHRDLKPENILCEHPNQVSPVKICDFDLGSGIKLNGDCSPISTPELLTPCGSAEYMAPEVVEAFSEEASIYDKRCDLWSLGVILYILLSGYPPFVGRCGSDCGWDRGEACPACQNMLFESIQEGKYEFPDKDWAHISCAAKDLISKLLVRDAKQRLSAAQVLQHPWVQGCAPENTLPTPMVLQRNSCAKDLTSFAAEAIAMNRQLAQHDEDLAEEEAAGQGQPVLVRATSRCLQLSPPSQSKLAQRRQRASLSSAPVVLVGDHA
Test: Inhibitory activity against MNK2 protein kinase (KinaseProfiler, 33P-ATP filter-binding)
Assay type: biochemical
Settings: myelin basic protein substrate, 40 min room temperature
Structures can show the parent of a compound that is named as a salt.
METRIC NAME: IC50 (nM)
Give the number; nM is assumed, so skip it.

Solved cases (3 shown):
The molecule identified as Cc1cc(Nc2ncnn3cc(OCCN4CCCC4)c(C)c23)c(=O)n2c1C(=O)NC2(C)C [Compound 8 (hydrochloride)] registered its IC50 at 33

The molecule identified as Cc1cc(Nc2ncnn3cc(OCC4CCN(C)C4)c(C)c23)c(=O)n2c1C(=O)NC21CCCCC1 (stereo not shown) [Compound 16 (hydrochloride)] registered its IC50 at 27

The molecule identified as Cc1c(OCCN2CCCC2)cn2ncnc(Nc3cc(F)c4n(c3=O)C3(CCCCC3)NC4=O)c12 [Compound 5 (hydrochloride)] registered its IC50 at 26

Continuing:
The molecule identified as Cc1cc(Nc2ncnn3cc(OCCN4CCCC4)c(C)c23)c(=O)n2c1C(=O)NC21CCCC1 [Compound 7 (hydrochloride)] registered its IC50 at 17
